# credit: PubChem BioAssay

Reported values of composite z-score for individual entries
experiment: probe aNOTCH3 binding on compound microarray – biochemical, small-molecule microarray, 635/667 nm fluorescence, primary screen (AID 1120); details: higher = more signal;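 note: probe is a biotin-tagged antibody raised against NOTCH3 rather than NOTCH3 protein; score merges spot fluorescence near 667 nm with spot signal to noise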

Consider the worked cases shown below.
{"columns": ["compound", "composite z-score"],
 "data": [
  ["C=CCOC(=O)[C@@H]1[C@H]2C(=O)O[C@H](c3ccccc3)[C@H](c3ccccc3)N2[C@H](c2ccc(OCCOC(=O)[C@H]3C[C@H]4C(=O)N[C@@H](CCCC[N+](C)(C)C)C(=O)N4[C@H]3c3cccc(OCCO)c3)cc2)[C@@]12C(=O)Nc1ccc(I)cc12", -0.0647],
  ["CCCCCCC#C[Si](O[C@H](c1ccccc1)c1cn([C@H](C)c2ccccc2)nn1)(C(C)C)C(C)C", 0.155],
  ["COc1ccc([Si](C)(C)[C@@H]2[C@@H](CCO)O[C@]3(C(=O)N(Cc4ccc(N5C(=O)c6cccc7cccc5c67)cc4)c4ccccc43)[C@H]2C)cc1", -0.252],
  ["NC(=O)[C@@]1(CCS(=O)(=O)c2ccccc2)N=C(c2ccc(OCCCO)cc2)O[C@H]1c1ccccc1", 0.0793],
  ["C=C(CCCC)C(=O)CC[C@H](OC(=O)c1ccccc1-c1ccccc1C(=O)O)c1ccc(CO)o1", -0.0014],
  ["CC(C)N1C(=O)c2ccccc2[C@](C)(C(=O)NCCCN(C)C)[C@@H]1c1ccc(CO)cc1", -0.149]
]}

[ask] // composite z-score lookup, key: C=CCC(OC(C)=O)[C@@H]1[C@@H](N(Cc2ccc(-c3ccccc3)cc2)C(=O)c2ccc(C)cc2)c2cc(OCCCO)ccc2N1C(=O)Cc1ccc(OC)cc1 (stereo partly specified)
[reply] -0.0208

[ask] Let us now turn to "COCCCNC(=O)[C@]1(Cc2ccccc2N=[N+]=[N-])N=C(c2ccc(OCCCO)cc2)O[C@@H]1c1ccccc1CN=[N+]=[N-]"
[reply] 0.523

###

Below is a list of entries, each paired with its recorded composite z-score value.
system: Wnt5a (protein binding on small-molecule microarray); experiment: small molecules binding Wnt5a protein – biophysical, small-molecule microarray, 635/667 nm fluorescence, primary screen (AID 1142); conditions: 635 nm fluorescence, higher = more signal;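 note: fluorescence read at 667 nm with signal to noise per printed feature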
In your answer, state the number alone without any accompanying words.

Reference set (3 entries):
{"columns": ["molecule", "assay-system", "quantity-measured", "test-value"],
 "data": [
  ["COC(=O)[C@@]1(Cc2ccc(F)cc2)[C@H]2c3cc(C(=O)N(C)C)n(Cc4ccccn4)c3C[C@H]2CN1C(=O)c1ccccc1", "Wnt5a (protein binding on small-molecule microarray)", "composite z-score", -0.0131],
  ["COCCOC(=O)N1C(=O)[C@@]2(c3cc(C#CC4=CCCCC4)ccc31)[C@H](c1ccc(OCCO)cc1)N1[C@H](c3ccccc3)[C@H](c3ccccc3)OC(=O)[C@H]1[C@@H]2C(=O)Nc1nc2ccccc2s1", "Wnt5a (protein binding on small-molecule microarray)", "composite z-score", 0.329],
  ["[N-]=[N+]=NCc1ccccc1[C@@H]1OC(c2ccc(OCCCO)cc2)=N[C@]1(Cc1ccccc1)C(=O)O", "Wnt5a (protein binding on small-molecule microarray)", "composite z-score", -0.198]
]}

[ask] Requested read-out: composite z-score. Entry: C=CCC(OC(C)=O)[C@@H]1[C@@H](N(Cc2ccc(-c3cccc(C(F)(F)F)c3)o2)C(=O)c2ccc(C)cc2)c2cc(OCCCO)ccc2N1C(=O)c1ccc2ccccc2n1 (stereo not given in full)
[reply] 0.0861

[ask] # iterate: "CN(C)CCCC[C@@H]1NC(=O)[C@@H]2C[C@H](C(=O)NCc3ccc(F)cc3)[C@H](c3cccc(OCCO)c3)N2C1=O"
[reply] 0.584

[ask] Please answer likewise for "O=C(NCC(F)(F)F)[C@@H]1c2ccccc2C(=O)N(Cc2ccccc2)[C@H]1c1ccc(CO)cc1"
[reply] -0.18

[ask] Likewise for "C=CCN1Cc2ccccc2C[C@@]2(COC(c3ccc(OCCCO)cc3)=N2)C1=O" ?
[reply] 0.253

[ask] Now the same for O=C1OCC=C[C@H]2OC34C=CCN(c5ccc(Cl)cc5)C(=O)[C@H]3N(CCCO)C(=O)[C@@H]4[C@@H]12 (stereo not given in full)
[reply] -0.329

[ask] Entry to check: "Cc1ccc(F)cc1S(=O)(=O)N[C@@H]1CCN(Cc2ccc(C(F)(F)F)cc2)C1"
[reply] -0.192

[ask] Another molecule: COCC1C2CC[C@H]3C(OCc4ccc(F)cc4C(F)(F)F)OC[C@]4(C)[C@H]3C2=C(CN4C(=O)OC(C)(C)C)[C@H](C)C1COC (stereo not given in full)
[reply] 0.33
